// provenance: paper PMC7815808

experiment: Spirotetramat hydrolysis study by HPLC‒MS/MS; assay type: physicochemical; design: unit not given beside the values; details: D, SP-enol without hydrolysis
MEASURED PARAMETER: content found by HPLC–MS/MS, sample treatment D
Answers are plain numbers.

Reference set, count: 3
| MOLECULE | RECORDED MEASUREMENT |
| --- | --- |
| COC1CCC2(CC1)NC(=O)C(c1cc(C)ccc1C)C2O (stereo not shown) [SP-mono, spirotetramat-monohydroxy] | 0.02 |
| CCOC(=O)OC1=C(c2cc(C)ccc2C)C(=O)N[C@]12CC[C@@H](OC)CC2 | 0.00 |
| CO[C@H]1CC[C@]2(CC1)NC(=O)C(c1cc(C)ccc1C)=C2O | 142.8 |

Proceeding to the next molecule to report its content found by HPLC–MS/MS, sample treatment D.
Consider COC1CCC2(CC1)NC(=O)C(O)(c1cc(C)ccc1C)C2=O (stereo not shown) [SP-keto, spirotetramat-ketohydroxy] . Its measured content found by HPLC–MS/MS, sample treatment D is 0.43

* * *

assay: Spirotetramat hydrolysis study by HPLC‒MS/MS; assay type: physicochemical; parameters: unit not given beside the values; conditions: A, SP hydrolysed (40 mM NaOH, 10 min, room temperature)
MEASURED PARAMETER: content found by HPLC–MS/MS, sample treatment A
Answers are plain numbers.

Here are 2 molecules together with their reported answers.
| MOLECULE | RECORDED MEASUREMENT |
| --- | --- |
| COC1CCC2(CC1)NC(=O)C(O)(c1cc(C)ccc1C)C2=O (stereo not shown) [SP-keto, spirotetramat-ketohydroxy] | 0.09 |
| COC1CCC2(CC1)NC(=O)C(c1cc(C)ccc1C)C2O (stereo not shown) [SP-mono, spirotetramat-monohydroxy] | 0.01 |

// for each molecule in input: emit content found by HPLC–MS/MS, sample treatment A
1. CO[C@H]1CC[C@]2(CC1)NC(=O)C(c1cc(C)ccc1C)=C2O [SP-enol, spirotetramat-enol]
2. CCOC(=O)OC1=C(c2cc(C)ccc2C)C(=O)N[C@]12CC[C@@H](OC)CC2 [SP]

*A*
[116.7, 0.03]

* * *

target: mAbs to SP and SP-enol; assay: Direct cELISA, binding of analytes and other pesticides by the generated mAbs; set-up: species or system mouse; settings: homologous tracer; read-out: lowest IC50 value with the homologous tracer
pIC50: −log10 of the molar value.
MEASURED PARAMETER: pIC50

GET /value?item= CO[C@H]1CC[C@]2(CC1)NC(=O)C(c1cc(C)ccc1C)=C2O &field=pIC50 returns ~8.52

* * *

Can you tell me content found by HPLC–MS/MS, sample treatment C for the items I'm about to list?
Experiment: Spirotetramat hydrolysis study by HPLC‒MS/MS
Assay type: physicochemical
Design: unit not given beside the values
Details: C, SP-enol hydrolysed (40 mM NaOH, 10 min, room temperature)
Protocol: In order to simultaneously quantify SP and SP-enol contents in a sample, an in situ procedure for treating the sample with alkaline solution in order to hydrolyse SP into SP-enol was assessed. SP and SP-enol standard solutions were prepared in MilliQ water and diluted fivefold with 40 mM NaOH. […] Controls without the hydrolysis step were also evaluated. Finally, the contents of SP, SP-enol, SP-keto, and SP-mono in the organic extracts were quantified (Table 2). […]
Give bare numbers.

Record content found by HPLC–MS/MS, sample treatment C per entry; entries follow.
1. COC1CCC2(CC1)NC(=O)C(c1cc(C)ccc1C)C2O (stereo not shown) [SP-mono, spirotetramat-monohydroxy]
2. CCOC(=O)OC1=C(c2cc(C)ccc2C)C(=O)N[C@]12CC[C@@H](OC)CC2
3. CO[C@H]1CC[C@]2(CC1)NC(=O)C(c1cc(C)ccc1C)=C2O
4. COC1CCC2(CC1)NC(=O)C(O)(c1cc(C)ccc1C)C2=O (stereo not shown) [SP-keto, spirotetramat-ketohydroxy]

*A*
[0.02, 0.02, 149.1, 0.39]

* * *

assay: Spirotetramat hydrolysis study by HPLC‒MS/MS; assay type: physicochemical; parameters: unit not given beside the values; conditions: B, SP without hydrolysis
Assign content found by HPLC–MS/MS, sample treatment B to each entry below.
One number for each entry.

| MOLECULE | RECORDED MEASUREMENT |
| --- | --- |
| COC1CCC2(CC1)NC(=O)C(O)(c1cc(C)ccc1C)C2=O (stereo not shown) [SP-keto, spirotetramat-ketohydroxy] | 0.08 |
| COC1CCC2(CC1)NC(=O)C(c1cc(C)ccc1C)C2O (stereo not shown) [SP-mono, spirotetramat-monohydroxy] | 0.12 |

Answer for every listed entry: what is its content found by HPLC–MS/MS, sample treatment B? The entries follow.
1. CCOC(=O)OC1=C(c2cc(C)ccc2C)C(=O)N[C@]12CC[C@@H](OC)CC2 [SP]
2. CO[C@H]1CC[C@]2(CC1)NC(=O)C(c1cc(C)ccc1C)=C2O [SP-enol, spirotetramat-enol]

*A*
109.4
1.44
